measuredTarget: Tyrosine-protein kinase ABL1 (Homo sapiens, UniProt P00519)
Sequence (P00519 whole entry, the tested form may be a part): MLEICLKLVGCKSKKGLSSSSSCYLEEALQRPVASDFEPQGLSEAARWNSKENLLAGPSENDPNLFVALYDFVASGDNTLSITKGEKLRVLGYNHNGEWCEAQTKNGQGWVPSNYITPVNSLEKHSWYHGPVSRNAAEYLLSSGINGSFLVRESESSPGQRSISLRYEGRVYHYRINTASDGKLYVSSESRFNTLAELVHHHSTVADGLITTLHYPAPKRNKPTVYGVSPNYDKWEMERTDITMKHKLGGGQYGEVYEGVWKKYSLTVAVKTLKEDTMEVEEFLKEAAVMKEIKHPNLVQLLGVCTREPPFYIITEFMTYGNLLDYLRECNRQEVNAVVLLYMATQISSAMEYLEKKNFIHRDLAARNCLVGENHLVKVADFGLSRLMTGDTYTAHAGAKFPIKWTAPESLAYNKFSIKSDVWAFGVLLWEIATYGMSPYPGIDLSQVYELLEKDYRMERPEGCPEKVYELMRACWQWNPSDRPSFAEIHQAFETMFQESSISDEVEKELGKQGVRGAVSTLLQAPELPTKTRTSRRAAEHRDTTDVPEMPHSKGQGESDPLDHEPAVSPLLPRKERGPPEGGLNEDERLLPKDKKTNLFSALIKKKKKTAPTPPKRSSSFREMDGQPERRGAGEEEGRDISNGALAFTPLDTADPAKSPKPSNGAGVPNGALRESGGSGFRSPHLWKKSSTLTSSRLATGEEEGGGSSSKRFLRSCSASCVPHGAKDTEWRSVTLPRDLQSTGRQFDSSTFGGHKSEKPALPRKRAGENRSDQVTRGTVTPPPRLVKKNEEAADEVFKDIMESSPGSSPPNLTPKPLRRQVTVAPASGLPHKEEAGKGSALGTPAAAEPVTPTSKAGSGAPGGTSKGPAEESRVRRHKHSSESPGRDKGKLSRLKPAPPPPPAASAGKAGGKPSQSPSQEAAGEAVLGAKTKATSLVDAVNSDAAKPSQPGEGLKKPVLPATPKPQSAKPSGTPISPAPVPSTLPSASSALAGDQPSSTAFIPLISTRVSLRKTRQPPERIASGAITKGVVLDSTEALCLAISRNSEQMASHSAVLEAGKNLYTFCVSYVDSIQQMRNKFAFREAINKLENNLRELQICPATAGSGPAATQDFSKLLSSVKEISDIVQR
assayText: Radioligand displacement assay for the binding of [125I]Glu-Pro-Gln-pTyr-Glu-Glu-Ile-Pro-Ile-Tyr-Leu to ABL SH2 domain
Where a SMILES comes first, the peptide text is derived from it. [ ]: non-standard residue; d: D form. pY = N[C@@H](Cc1ccc(OP(=O)(O)O)cc1)C(=O)O

>  <compound>
CC[C@H](C)[C@H](NC(=O)[C@H](CCC(=O)O)NC(=O)[C@H](CCC(=O)O)NC(=O)[C@H](Cc1ccc(OP(=O)(O)O)cc1)NC(C)=O)C(=O)N[C@@H](CCC(=O)O)C(=O)O (Ac-[pY]EEIE-OH)

>  <IC50 / µM>
7.9

$$$$

* * *

measuredTarget: Tyrosine-protein kinase ABL1 (Homo sapiens)
assayText: Inhibition of [35S]-labeled SH2-GST Abl binding to the phospho-PDGF receptor intracellular domain
pIC50: −log10 of the molar value. Where a SMILES comes first, the peptide text is derived from it. [ ]: non-standard residue; d: D form. pY = N[C@@H](Cc1ccc(OP(=O)(O)O)cc1)C(=O)O
measureName: pIC50

>  <compound>
CC[C@H](C)[C@H](NC(=O)[C@H](CCC(=O)O)NC(=O)[C@H](CCC(=O)O)NC(=O)[C@H](Cc1ccc(OP(=O)(O)O)cc1)NC(C)=O)C(=O)N[C@@H](CCC(=O)O)C(=O)O (Ac-[pY]EEIE-OH)

>  <reading>
4.82

$$$$

Data provenance: ChEMBL document CHEMBL1130490
